Could you please report measured pIC50 for the items listed next?
target: angiotensin II AT1 receptor; experiment: Assay A: Angiotensin II binding activity, rat uterine membrane preparation, 125I-AII displacement
Please report pIC50 as the negative decimal logarithm of the molar concentration, giving only the number.

Return reported pIC50; argument: CCCCc1nc(CC23CC4CC(CC(C4)C2)C3)nn1Cc1ccc(-c2ccccc2-c2nnn[nH]2)cc1 6.10

Return reported pIC50; argument: CCCCc1cn(CCC)c(=O)n1Cc1ccc(-c2ccccc2-c2nnn[nH]2)nc1 7.00

Return reported pIC50; argument: CCCCc1nc(CC(C)(C)C)n(Cc2ccc(-c3ccccc3-c3nnn[nH]3)nc2)n1 7.74

----------
Could you please report measured pIC50 for the items listed next?
molecular target: angiotensin II AT1 receptor; experiment: Assay A: Angiotensin II binding activity, rat uterine membrane preparation, 125I-AII displacement
Please report pIC50 as the negative decimal logarithm of the molar concentration, giving only the number.

Return reported pIC50; argument: CCCCc1cn(-c2ccccc2C(C)(C)C)c(=O)n1Cc1ccc(-c2ccccc2-c2nnn[nH]2)nc1 [Compound 240] 6.92

Return reported pIC50; argument: CCCCc1nc(Cc2ccccc2)nn1Cc1ccc(-c2ccccc2-c2nnn[nH]2)cc1 [Compound 55] 7.10

Return reported pIC50; argument: CCCCn1nc(C2OCCCO2)nc1Cc1ccc(-c2ccccc2-c2nnn[nH]2)nc1 [Compound 191] 7.09

Return reported pIC50; argument: CCCCc1nc(C(=O)O)nn1Cc1ccc(-c2ccccc2-c2nnn[nH]2)cc1 [Compound 63] 7.21

Every entry's value here was drawn from patent US20040102423A1.
